Field: polymerase ribozyme fitness (log ratio). Provide a value for each of the variants that follow.
B1: TPR 5TU (parent)
chain: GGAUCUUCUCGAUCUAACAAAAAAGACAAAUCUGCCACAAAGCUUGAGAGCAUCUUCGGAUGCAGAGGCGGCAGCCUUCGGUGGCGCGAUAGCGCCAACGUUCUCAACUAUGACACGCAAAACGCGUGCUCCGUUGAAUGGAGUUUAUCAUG

# Variants of: B1
# protocol: polymerase ribozyme fitness, log enrichment relative to wild type (log ratio); higher = more active; in vitro selection for triplet polymerase activity
This sample holds only a part of the variants without activity.
Output: the number by itself.

### Prompt Give reported polymerase ribozyme fitness (log ratio) value for A16U U61A C95U
### Response -3.06

### Prompt Supply recorded polymerase ribozyme fitness (log ratio) for A73U G83A here.
### Response -1.97

### Prompt Give me measured polymerase ribozyme fitness (log ratio), please, for this variant: U33A C95U A142U G143U
### Response -4.13

### Prompt Tell us which polymerase ribozyme fitness (log ratio) value is on record for G83C A106G
### Response -0.352

### Prompt Given the variant A41G G84A A89G C103G , write its reported polymerase ribozyme fitness (log ratio).
### Response -3.2

### Prompt Report polymerase ribozyme fitness (log ratio) for G84U C116U G141C
### Response -4.04

### Prompt Dear colleague, please send me the reported polymerase ribozyme fitness (log ratio) for A23U when you can.
### Response -3.23

### Prompt Find the measured polymerase ribozyme fitness (log ratio) of G11A A39U A97C and report it.
### Response -3.26

### Prompt Name the recorded polymerase ribozyme fitness (log ratio) of the variant listed here: C57G G86A C95U C99U G141U
### Response -3.92

### Prompt Return reported polymerase ribozyme fitness (log ratio). Input variant: C57U C85A A98C
### Response -1.23

### Prompt Give me measured polymerase ribozyme fitness (log ratio), please, for this variant: C38U A73U
### Response 0.0337

### Prompt Please give measured polymerase ribozyme fitness (log ratio) of the following entry: A60G C85G G94A
### Response -0.0985

### Prompt Please report the measured polymerase ribozyme fitness (log ratio) for A20C U61G C75U U146A
### Response -2.77

### Prompt Tell us which polymerase ribozyme fitness (log ratio) value is on record for A23G C114U
### Response -3.53

### Prompt Note down polymerase ribozyme fitness (log ratio) recorded for A22G G58A A120G C123A C129G
### Response -3.06

### Prompt Annotate the variant A28U C54U C76A C114U with its measured polymerase ribozyme fitness (log ratio).
### Response -3.97

### Prompt Indicate the recorded polymerase ribozyme fitness (log ratio) value for this variant: C85A G94A
### Response -1.74

### Prompt In one line, give reported polymerase ribozyme fitness (log ratio) of the entry U82A .
### Response -0.0631

### Prompt Please give measured polymerase ribozyme fitness (log ratio) of the following entry: C18U A26U C75G G83A A122U G143A
### Response -3.81

### Prompt Provide measured polymerase ribozyme fitness (log ratio) value, entry: U4G C38A A47C C85G
### Response -3.7

### Prompt For C54A U55A A60U , write its polymerase ribozyme fitness (log ratio).
### Response -1.37

### Prompt Consider the variant U127C C131A G152U . State its measured polymerase ribozyme fitness (log ratio).
### Response -3.91

### Prompt Determine its reported polymerase ribozyme fitness (log ratio): U104G G126C
### Response 0.0565

### Prompt Input A22G G124A , output reported polymerase ribozyme fitness (log ratio).
### Response 0.539

### Prompt Annotate the variant U82A C125A with its measured polymerase ribozyme fitness (log ratio).
### Response -0.504

### Prompt Tell me measured polymerase ribozyme fitness (log ratio) for A22C C76A A89G C95G please.
### Response -4.19

### Prompt Answer with reported polymerase ribozyme fitness (log ratio) of A37C C95U
### Response -2.04

### Prompt Give the value of polymerase ribozyme fitness (log ratio) reported for the following: C38G G140C
### Response -4.11

### Prompt Let me know recorded polymerase ribozyme fitness (log ratio) for G48A C149U , thanks.
### Response -1.46

### Prompt Provide only the value of recorded polymerase ribozyme fitness (log ratio) for A30G U45A A106C U135G
### Response -3.85

### Prompt Write down polymerase ribozyme fitness (log ratio) measured for item C87U C118G
### Response -1.33

### Prompt Answer with the recorded polymerase ribozyme fitness (log ratio) for the variant listed here: C5G G59U C99U A119G
### Response -1.53

### Prompt State its polymerase ribozyme fitness (log ratio): A40G C75G
### Response -4.09

### Prompt Give polymerase ribozyme fitness (log ratio) for the following variant: G59U U102G
### Response -3.26

### Prompt Output polymerase ribozyme fitness (log ratio) of U61A C85U
### Response -1.28

### Prompt Please report the measured polymerase ribozyme fitness (log ratio) for U55A C129A
### Response -2.11

### Prompt Report polymerase ribozyme fitness (log ratio), nothing else, for this variant: A41C U134G
### Response -2.46

### Prompt Identify polymerase ribozyme fitness (log ratio) associated with the variant C105G U127C U139G
### Response -2.77

### Prompt Give the value of polymerase ribozyme fitness (log ratio) reported for the following: C72A
### Response -3.87

### Prompt Input A3U A52G C96G C131U , output reported polymerase ribozyme fitness (log ratio).
### Response -0.0465

### Prompt Find the measured polymerase ribozyme fitness (log ratio) of G25U C85G and report it.
### Response -3.79

### Prompt Give me measured polymerase ribozyme fitness (log ratio), please, for this variant: A22G G58C A119U A122U
### Response 0.574

These measurements were taken from the RNAGym collection of RNA variant scans (doi:10.1073/pnas.2313332121).
